- protocol_notes: xn = mol fraction of the nth substance listed
- experimental_context: 288.15 K, Wilhelmy plate method, x1 = 0.25
Numbers after ± are expanded uncertainties.
observable: surface tension liquid-gas
Answer as a quantity: numeral, then unit.

Solved cases below.
CCC(=O)OCc1ccccc1 [benzyl propanoate] + CCO | 26.7 ± 0.4 mN/m
COC(=O)c1ccccc1 [methyl benzoate] + CCO | 26.92 ± 0.4 mN/m
CCOC(=O)c1ccccc1O [ethyl 2-hydroxybenzoate] + CCO | 26.65 ± 0.4 mN/m
CC(=O)OCc1ccccc1 [benzyl ethanoate] + CCO | 26.7 ± 0.4 mN/m
CCOC(=O)CC(C)=O [ethyl 3-oxobutanoate] + CCO | 25.77 ± 0.4 mN/m

Continue with the molecule presented below.
Need surface tension liquid-gas of CCOC(=O)CC(C)C [ethyl 3-methylbutanoate] + CCO , thanks.
23.55 ± 0.4 mN/m
